- ASSAYED_SYSTEM: T1, ubiquitin (whether His-tagged or not is not told for the experiment) (UniProt P0CG48 1-76)
- T1 construct: ubiquitin, the 76-residue cut product (residues up to Gly76 are named); The methods list His-tagged and non His-tagged ubiquitin; It may carry the C-terminal His tag of m6; 15N- or 13C,15N-labelled in some NMR experiments; source: purchased from Spectra Isotopes or obtained as described in [12]; [18]
- METHOD_DESCRIPTION: other fluorescence titration + ITC; 25 °C; ubiquitin stock titrated into the SH3 domain; ITC in 20 mM cacodylate, pH 6.0, about 50 µM SH3 in the cell and about 800 µM ubiquitin; intrinsic tryptophan fluorescence (excitation 298 nm), apparent affinities; model of a single set of identical sites
- ASSAY_CONTEXT: both partners purified
MEASURED_PROPERTY: Kd
Answer format reminder: number followed by unit.

Quick check: Kd of CD2AP F324Y SH3-C (domain or fragment, CD2AP third SH3 domain (SH3-C) with F324Y; Site-directed mutagenesis (QuikChange) of the WT construct m3; also called SH3-C F324Y mutant; F324Y CD2AP SH3-C; source: E. coli BL21/DE3, purified like the WT CD2AP SH3-C) AKEYCRTLFPYTGTNEDELTFREGEIIHLISKETGEAGWWKGELNGKEGVFPDNYAVQIS ? 24 µM
